- TARGET_OF_ASSAY: AmpC (Pseudomonas aeruginosa, UniProt P24735)
- Construct: AmpC, TEM-1, KPC-2 or OXA-2 domain excluding signal peptide was amplified with PCR
- Sequence (P24735 27-397): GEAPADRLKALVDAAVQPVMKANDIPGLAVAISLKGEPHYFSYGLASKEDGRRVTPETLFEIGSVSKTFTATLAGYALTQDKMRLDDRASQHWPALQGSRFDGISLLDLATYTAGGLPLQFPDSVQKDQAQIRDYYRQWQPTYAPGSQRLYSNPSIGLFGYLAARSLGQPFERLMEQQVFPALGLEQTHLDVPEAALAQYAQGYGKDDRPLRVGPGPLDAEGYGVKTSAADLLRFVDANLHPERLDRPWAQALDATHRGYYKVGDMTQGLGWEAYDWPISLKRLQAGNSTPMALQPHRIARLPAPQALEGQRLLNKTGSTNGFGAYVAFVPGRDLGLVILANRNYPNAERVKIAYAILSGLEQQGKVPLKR
- EXPERIMENT_DESCRIPTION: biochemical
// values below are reported IC50
ASSAY_METRIC: IC50

> print(dat)
                              record.smiles  assay.metric        measured
1  C[C@@H](N)CONC(=O)[C@@H]1CC[C@@H]2CN1C(=O)N2OS(=O)(=O)O          IC50  100 to 1000 nM
2  O=C(NOCCn1cccc1)[C@@H]1CC[C@@H]2CN1C(=O)N2OS(=O)(=O)O          IC50        < 100 nM
3  CC(C)(C)OC(=O)NCCONC(=O)[C@@H]1CC[C@@H]2CN1C(=O)N2OS(=O)(=O)O          IC50  100 to 1000 nM
4  CC(C)NCCONC(=O)[C@@H]1CC[C@@H]2CN1C(=O)N2OS(=O)(=O)O          IC50  100 to 1000 nM
5  CC(C)C(=O)NNC(=O)[C@@H]1CC[C@@H]2CN1C(=O)N2OS(=O)(=O)O          IC50  100 to 1000 nM
6  Nc1ccc(CC(=O)NNC(=O)[C@@H]2CC[C@@H]3CN2C(=O)N3OS(=O)(=O)O)cc1          IC50        < 100 nM
7  O=C(NOCCn1ccnc1)[C@@H]1CC[C@@H]2CN1C(=O)N2OS(=O)(=O)O          IC50        < 100 nM
8  O=C(NOCC1CNC1)[C@@H]1CC[C@@H]2CN1C(=O)N2OS(=O)(=O)O          IC50        < 100 nM

====

- TARGET_OF_ASSAY: OXA-2 (Escherichia coli)
- Construct: AmpC, TEM-1, KPC-2 or OXA-2 domain excluding signal peptide was amplified with PCR; made in house; host or cells: Escherichia coli BL21 (DE3), pET-28b(+)
- Sequence (P0A1V9 22-275): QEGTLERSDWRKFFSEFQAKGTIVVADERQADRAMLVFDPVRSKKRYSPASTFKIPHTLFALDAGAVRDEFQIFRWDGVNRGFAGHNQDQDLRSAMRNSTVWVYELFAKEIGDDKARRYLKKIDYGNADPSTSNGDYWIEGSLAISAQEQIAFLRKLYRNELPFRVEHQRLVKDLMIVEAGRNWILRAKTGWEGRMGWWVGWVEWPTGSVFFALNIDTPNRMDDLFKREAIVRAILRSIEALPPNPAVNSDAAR
- EXPERIMENT_DESCRIPTION: biochemical
- Set-up: species or system P. aeruginosa
pIC50: −log10 of the molar value.
// values below are reported pIC50
ASSAY_METRIC: pIC50

> print(dat)
                              record.smiles  assay.metric      measured
1  CS(=O)(=O)CCONC(=O)[C@@H]1CC[C@@H]2CN1C(=O)N2OS(=O)(=O)O         pIC50  6.00 to 7.00
2  CC(C)(C)OC(=O)NCCONC(=O)[C@@H]1CC[C@@H]2CN1C(=O)N2OS(=O)(=O)O         pIC50  6.00 to 7.00
3  O=C(NOCCN1CCNC1=O)[C@@H]1CC[C@@H]2CN1C(=O)N2OS(=O)(=O)O         pIC50  6.00 to 7.00

====

- TARGET_OF_ASSAY: KPC-2 (Klebsiella pneumoniae)
- Construct: AmpC, TEM-1, KPC-2 or OXA-2 domain excluding signal peptide was amplified with PCR
- Sequence (Q9F663 25-293, looked up): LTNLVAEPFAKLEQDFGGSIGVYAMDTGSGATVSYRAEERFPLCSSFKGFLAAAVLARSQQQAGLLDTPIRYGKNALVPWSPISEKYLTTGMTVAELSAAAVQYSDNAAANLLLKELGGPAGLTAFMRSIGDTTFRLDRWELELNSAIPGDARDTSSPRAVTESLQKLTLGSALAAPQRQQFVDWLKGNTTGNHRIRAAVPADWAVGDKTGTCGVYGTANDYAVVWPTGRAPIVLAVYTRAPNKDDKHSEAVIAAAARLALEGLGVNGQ
- EXPERIMENT_DESCRIPTION: β-Lactamase inhibitory activity (nitrocefin hydrolysis), KPC-2
- CONDITION_INFO: KPC-2 0.5 nM, 100 μM nitrocefin, pre-incubation 30° C. 10 minutes
ASSAY_METRIC: IC50

> print(dat)
                                    compound          measured
 1  CC(C)(C)C(=O)NNC(=O)[C@@H]1CC[C@@H]2CN1C(=O)N2OS(=O)(=O)O    100 to 1000 nM
 2  COCCONC(=O)[C@@H]1CC[C@@H]2CN1C(=O)N2OS(=O)(=O)O    100 to 1000 nM
 3  CCONC(=O)[C@@H]1CC[C@@H]2CN1C(=O)N2OS(=O)(=O)O (racemic)   1000 to 3000 nM
 4  CN(C)C(=O)NNC(=O)[C@@H]1CC[C@@H]2CN1C(=O)N2OS(=O)(=O)O    100 to 1000 nM
 5  NCC(=O)NNC(=O)[C@@H]1CC[C@@H]2CN1C(=O)N2OS(=O)(=O)O (racemic)   1000 to 3000 nM
 6  CCN(CC)C(=O)NNC(=O)[C@@H]1CC[C@@H]2CN1C(=O)N2OS(=O)(=O)O    100 to 1000 nM
 7  O=C(NOCC1CCNCC1)[C@@H]1CC[C@@H]2CN1C(=O)N2OS(=O)(=O)O    100 to 1000 nM
 8  O=C(NOCCN1CCOCC1)[C@@H]1CC[C@@H]2CN1C(=O)N2OS(=O)(=O)O    100 to 1000 nM
 9  O=C(NN1CCCC1=O)[C@@H]1CC[C@@H]2CN1C(=O)N2OS(=O)(=O)O (racemic)    100 to 1000 nM
10  O=C(NNC(=O)[C@@H]1CC[C@@H]2CN1C(=O)N2OS(=O)(=O)O)c1ccco1    100 to 1000 nM
11  CS(=O)(=O)CCONC(=O)[C@@H]1CC[C@@H]2CN1C(=O)N2OS(=O)(=O)O          < 100 nM
12  O=C(NNC(=O)[C@@H]1CC[C@@H]2CN1C(=O)N2OS(=O)(=O)O)c1cccnc1    100 to 1000 nM
13  O=C([C@@H]1CC[C@@H]2CN1C(=O)N2OS(=O)(=O)O)N1CCCCO1    100 to 1000 nM
14  O=C(NNC(=O)[C@@H]1CC[C@@H]2CN1C(=O)N2OS(=O)(=O)O)C1CCNCC1  3000 to 10000 nM
15  CC(=O)N(C)NC(=O)[C@@H]1CC[C@@H]2CN1C(=O)N2OS(=O)(=O)O (racemic)          < 100 nM
16  O=C1CC[C@@H](C(=O)NNC(=O)[C@@H]2CC[C@@H]3CN2C(=O)N3OS(=O)(=O)O)N1   1000 to 3000 nM
17  NCCONC(=O)[C@@H]1CC[C@@H]2CN1C(=O)N2OS(=O)(=O)O    100 to 1000 nM

====

// values below are reported IC50
- TARGET_OF_ASSAY: AmpC (Pseudomonas aeruginosa, UniProt P24735)
- Construct: AmpC, TEM-1, KPC-2 or OXA-2 domain excluding signal peptide was amplified with PCR
- EXPERIMENT_DESCRIPTION: biochemical
ASSAY_METRIC: IC50

> print(dat)
                                   compound     measured
1  CS(=O)(=O)CCONC(=O)[C@@H]1CC[C@@H]2CN1C(=O)N2OS(=O)(=O)O     < 0.1 µM
2  COC(=O)NNC(=O)[C@@H]1CC[C@@H]2CN1C(=O)N2OS(=O)(=O)O  0.1 to 1 µM
3  O=C(NNC(=O)[C@@H]1CC[C@@H]2CN1C(=O)N2OS(=O)(=O)O)C1CCOCC1     < 0.1 µM
4  CCN(CC)C(=O)NNC(=O)[C@@H]1CC[C@@H]2CN1C(=O)N2OS(=O)(=O)O     < 0.1 µM
5  CC(=O)N(C)NC(=O)[C@@H]1CC[C@@H]2CN1C(=O)N2OS(=O)(=O)O (racemic)  0.1 to 1 µM
6  O=C(NNC(=O)[C@@H]1CC[C@@H]2CN1C(=O)N2OS(=O)(=O)O)[C@@H]1CCCCN1  0.1 to 1 µM
7  CN(NC(=O)[C@@H]1CC[C@@H]2CN1C(=O)N2OS(=O)(=O)O)C(=O)OC(C)(C)C (racemic)  0.1 to 1 µM
8  COCCONC(=O)[C@@H]1CC[C@@H]2CN1C(=O)N2OS(=O)(=O)O     < 0.1 µM

====

// values below are reported MIC
- System: sensitive tuberculosis (H37Rv)
- EXPERIMENT_DESCRIPTION: Anti-tubercle bacillus activity, liquid medium dilution MIC
- Assay type: cell-based
- CONDITION_INFO: Mycobacterium tuberculosis, 168 h, alone, 7 days at 37° C., read-out: antibacterial activity (MIC) of β-lactam agent alone

COMPOUND	MIC
CC1(C)S[C@@H]2[C@H](NC(=O)[C@H](N)c3ccc(O)cc3)C(=O)N2[C@H]1C(=O)O [AMPC, amoxicillin, reference compound]	16 µg/mL
C[C@@H](O)[C@H]1C(=O)N2C(C(=O)O)=C(S[C@@H]3CN[C@H](C(=O)N(C)C)C3)[C@H](C)[C@H]12 [MEPM, meropenem, reference compound]	1 µg/mL
C[C@@H](O)[C@H]1C(=O)N2C(C(=O)O)=C(SC3CN(C4=NCCS4)C3)[C@H](C)[C@H]12 [TBPM, tebipenem, reference compound]	0.5 µg/mL
CC1(C)S[C@@H]2[C@H](NC(=O)[C@H](N)c3ccccc3)C(=O)N2[C@H]1C(=O)O [ABPC, ampicillin, reference compound]	16 µg/mL
C[C@@H](O)[C@H]1C(=O)N2C(C(=O)[O-])=C(SC3Cn4cnc[n+]4C3)[C@H](C)[C@H]12 (some centres unmarked) [BIPM, biapenem, reference compound]	1 µg/mL
